Please find below Ki measurements for UniProtKB P32245, combined from several publications.
With a cut-off of 80 nM, any Ki strictly below it is called 1; any Ki meeting it or above is called 0.

Worked examples follow.
| molecule | label |
| --- | --- |
| COCC(=O)N[C@H]1Cc2cc3c(c(c2)Cc2ccc(cc2)Oc2cccc(c2)CN(CCCN2CCN(CCCN)CC2)C1=O)OCOC3 | 0 |
| CCC(C)C(O)c1ccccc1N1CCN(C(=O)[C@@H](Cc2ccc(Cl)cc2Cl)NC(=O)CCN)CC1 (stereo partly drawn) | 1 |
| CCC(O)(CC)c1ccccc1N1CCN(C(=O)[C@@H](Cc2ccc(Cl)cc2Cl)NC(=O)CN)CC1 | 1 |
| CC(C)N1C[C@H](C(=O)N2CCN(C3(CNCc4ccco4)CCCCC3)CC2)[C@@H](c2ccc(Cl)cc2)C1 | 1 |
| COc1ccc(CNCC2(N3CCN(C(=O)[C@H]4CN(C(C)C)C[C@@H]4c4ccc(Cl)cc4)CC3)CCCCC2)c(OC)c1 | 1 |

q: Consider the molecule COCC(C)NCc1cccnc1N1CCN(C(=O)[C@@H](Cc2ccc(Cl)cc2Cl)NC(C)=O)CC1 (stereo partly drawn) . Is its Ki strictly less than 80 nM?
a: 0

###

Please find below Ki measurements for Melanocortin receptor 4 (Homo sapiens), combined from several publications.
Answers are plain numbers, in nM.

Sample records with Ki:
| compound | unit | numericValue |
| --- | --- | --- |
| CC(C)C[C@H](NC(=O)CN)c1cccnc1N1CCN(C(=O)[C@H](C)Cc2ccc(Cl)cc2Cl)CC1 | nM | 39 |
| CC(C)NC(=O)NCc1cccnc1N1CCN(C(=O)[C@@H](Cc2ccc(Cl)cc2Cl)NC(=O)CCN)CC1 | nM | 1300 |
| CCN(CC)CCCC(C)N=C(N)NC(=O)c1cccc(F)c1CCc1ccc2ccccc2c1 (stereo not drawn) | nM | 690 |
| NC(N)=NCCC[C@H](N)C(=O)N(Cc1ccc2ccccc2c1)Cc1cccc2ccccc12 | nM | 5010 |
| CSCCCN[C@H](Cc1ccc(Cl)cc1Cl)C(=O)N1CCN(c2ccccc2C(=O)CC(C)C)CC1 | nM | 230 |
| O=C(N[C@H](Cc1ccc(Cl)cc1)C(=O)N1CCN(c2cccc3c2NCC3)CC1)[C@H]1Cc2ccccc2CN1 | nM | 2100 |
| NCCC(=O)N[C@H](Cc1ccc(Cl)cc1Cl)C(=O)N1CCN(c2ncccc2CNC(=O)c2ccco2)CC1 | nM | 2600 |

Now look at this one.
q: Give the reported value of Ki for this record: COc1ccc(Br)cc1CCc1c(F)cccc1C(=O)/N=C(\N)NCCCCN1CCc2ccccc2C1
a: 26

###

Please find below Ki measurements for Melanocortin receptor 4 (Homo sapiens), combined from several publications.
With a cut-off of 0.2 µM, any Ki strictly below it is called fulfilled; any Ki meeting it or above is called not fulfilled.

Worked examples follow.
| molecule | label |
| --- | --- |
| CC(=O)NCc1cccnc1N1CCN(C(=O)[C@@H](Cc2ccc(Cl)cc2Cl)NC(=O)CCN)CC1 | not fulfilled |
| NCCC(=O)NC(COCc1ccccc1)c1cc(F)ccc1N1CCN(C(=O)CCc2ccc(Cl)cc2Cl)CC1 (stereo not drawn) | not fulfilled |
| CC(C)CC(O)c1ccccc1N1CCN(C(=O)[C@@H](Cc2ccc(Cl)cc2Cl)N(CC(C)C)CC(C)C)CC1 (stereo partly drawn) | not fulfilled |

q: Consider the molecule CCN(CC(c1ccccc1F)N1CCN(C)CC1)C(=O)OC (stereo not drawn) . Is its Ki strictly less than 0.2 µM?
a: not fulfilled

q: Consider the molecule CSc1ccc(CNCC2(N3CCN(C(=O)[C@H]4CN(C(C)C)C[C@@H]4c4ccc(Cl)cc4)CC3)CCCCC2)cc1 . Is its Ki strictly less than 0.2 µM?
a: fulfilled

q: Consider the molecule CCN(CC)Cc1ccccc1N1CCN(C(=O)[C@@H]2CN(C(C)C)C[C@H]2c2ccc(Cl)cc2)CC1 . Is its Ki strictly less than 0.2 µM?
a: not fulfilled

q: Consider the molecule CC(=O)N[C@@H](Cc1cnc[nH]1)C(=O)N[C@H](Cc1ccccc1)C(=O)N1C[C@H](OCc2ccc3ccccc3c2)C[C@@H]1C(=O)NCCN=C(N)N . Is its Ki strictly less than 0.2 µM?
a: not fulfilled

q: Consider the molecule CCC(C)[C@H](N)c1cc(C(F)(F)F)ccc1N1CCN(C(=O)CCc2ccc(OC)cc2Cl)CC1 (stereo partly drawn) . Is its Ki strictly less than 0.2 µM?
a: fulfilled

###

Please find below Ki measurements for Melanocortin receptor 4 (Homo sapiens, UniProt P32245), combined from several publications.
With a cut-off of 100 nM, any Ki strictly below it is called Y; any Ki meeting it or above is called N.

Worked examples follow.
| compound | label |
| --- | --- |
| CC(C)CC(N)c1ccccc1N1CCN(C(=O)[C@@H](Cc2ccc(Cl)cc2Cl)N(Cc2ccccn2)Cc2ccccn2)CC1 (some centres not stated) | Y |
| CC(NC1CCC(N)CC1)c1ccccc1N1CCN(C(=O)[C@@H](Cc2ccc(Cl)cc2)NC(=O)[C@H]2Cc3ccccc3CN2)CC1 (some centres not stated) | Y |
| CC(C)C[C@H](N)c1cc(C(F)(F)F)ccc1N1CCN(C(=O)[C@H](C)Cc2ccc(Cl)cc2)CC1 | Y |
| CCOC(=O)CN(C)Cc1ccccc1N1CCN(C(=O)[C@@H](Cc2ccc(Cl)cc2)NC(=O)[C@H]2Cc3ccccc3CN2)CC1 | N |
| CCCCC(=O)N[C@H](Cc1ccc(Cl)cc1)C(=O)N1CCN(C2(CNC(=O)Cc3ccccc3)CCCCC2)CC1 | N |

q: Consider the compound CNC(=O)[C@H](Cc1ccc2ccccc2c1)N1CCN(C(=O)[C@@H](Cc2ccc(F)cc2)NC(=O)[C@H](Cc2cnc[nH]2)NC(C)=O)[C@@H](CCCN=C(N)N)C1=O . Is its Ki strictly less than 100 nM?
a: Y

q: Consider the compound O=C(O)CCNCc1ccccc1N1CCN(C(=O)[C@@H](Cc2ccc(Cl)cc2)NC(=O)[C@H]2Cc3ccccc3CN2)CC1 . Is its Ki strictly less than 100 nM?
a: N

###

Please find below Ki measurements for Melanocortin receptor 4 (Homo sapiens), combined from several publications.
Answers are plain numbers, in nM.

Sample records with Ki:
| molecule | parameter | numericValue |
| --- | --- | --- |
| CC(C)CN1C[C@@H](C(=O)N2CCN(c3c(F)cccc3[C@@H](N)C(C)C)CC2)[C@H](c2ccc(Cl)cc2)C1 | Ki | 43 |
| COc1cc(OC)c(OC)cc1CCC(=O)N1CCN(c2ccc(C(F)(F)F)cc2[C@@H](N)CC(C)C)CC1 | Ki | 6100 |
| CCN(CC)Cc1ccccc1N1CCN(C(=O)[C@@H](Cc2ccc(Cl)cc2)NC(=O)[C@H]2Cc3ccccc3CN2)CC1 | Ki | 52 |

Look up Ki for the entries below, preserving their order.
1. CC(=O)Nc1ccc(CNCC2(N3CCN(C(=O)[C@H]4CN(C(C)C)C[C@@H]4c4ccc(Cl)cc4)CC3)CCCCC2)cc1
2. NCCC(=O)N[C@H](Cc1ccc(Cl)cc1Cl)C(=O)N1CCN(c2ncccc2CNC(=O)c2ccc(F)cc2)CC1
3. CNC(=O)[C@H](Cc1ccc2ccccc2c1)N1CCN(C(=O)[C@@H](Cc2ccc(F)cc2)NC(=O)C2Cc3ccccc3CN2)[C@@H](CCCN=C(N)N)C1=O (stereo partly specified)
4. CC(C)CN(Cc1ccncc1)CC1(N2CCN(C(=O)[C@H]3CN(C(C)C)C[C@@H]3c3ccc(Cl)cc3)CC2)CCCCC1
5. CCN(CC(c1ccccc1F)N1CCN(C)CC1)S(C)(=O)=O (stereo unspecified)

a:
1. 29
2. 2200
3. 6
4. 2700
5. 157

###

pKi: −log10 of the molar value.
Please find below pKi measurements for UniProt P32245, combined from several publications.
# cutoff 7 applies to pKi; >= gives fulfilled, < gives not fulfilled

Worked examples follow.
| molecule | label |
| --- | --- |
| COc1ccc(Br)cc1CCc1c(F)cccc1C(=O)/N=C(\N)NCCCCN(C)Cc1cccc2ccccc12 | fulfilled |
| CCCCN(CCCC)[C@H](Cc1ccc(Cl)cc1Cl)C(=O)N1CCN(c2ccccc2C(O)CC(C)C)CC1 (stereo partly specified) | not fulfilled |
| CCN(CC)CC(c1ccccc1Cl)N1CCN(C(=O)[C@@H](Cc2ccc(Cl)cc2)NC(=O)CC2NCCc3ccccc32)CC1 (stereo in doubt; 43) | fulfilled |

q: Reported pKi at or above 7? CC(C)C[C@H](N)c1cc(C(F)(F)F)ccc1N1CCN(C(=O)C(C)Cc2ccc(Cl)cc2)CC1 (stereo partly specified)
a: fulfilled

q: Reported pKi at or above 7? O=C(Cc1ccccc1)NCC1(N2CCN(C(=O)[C@@H](Cc3ccc(Cl)cc3)NC(=O)C3CCCC3)CC2)CCCCC1
a: not fulfilled

q: Reported pKi at or above 7? COc1ccc(Br)cc1CCc1c(Cl)cccc1-c1nccn1C
a: not fulfilled

q: Reported pKi at or above 7? CC(C)CC(N)c1ccccc1N1CCN(C(=O)[C@@H](Cc2ccc(Cl)cc2Cl)NC(=O)CN)CC1 (stereo partly specified)
a: fulfilled

q: Reported pKi at or above 7? Cc1nc2c(cc1-c1ncccn1)CC[C@@]1(CCN(C(=O)[C@H](C)c3ccc(OC(F)F)nc3)C1)N2
a: not fulfilled

q: Reported pKi at or above 7? COc1ccc(OC)c(CCC(=O)N2CCN(c3ccc(C(F)(F)F)cc3[C@@H](N)CC(C)C)CC2)c1
a: not fulfilled

q: Reported pKi at or above 7? CNC(=O)[C@H](Cc1ccc2ccccc2c1)NC(=O)[C@H](CCCN=C(N)N)NC(=O)[C@H](CC[C@H](Cc1ccc(O)cc1)NC(C)=O)Cc1ccc(F)cc1
a: fulfilled

q: Reported pKi at or above 7? CC(=O)N[C@@H](CCC(N)=O)C(=O)N[C@H](Cc1ccccc1)C(=O)N1C[C@H](OCc2ccc3ccccc3c2)C[C@@H]1C(=O)NCCN=C(N)N
a: not fulfilled

q: Reported pKi at or above 7? CCN(CC)CC(c1ccccc1F)N1CCN(C)CC1 (stereo unspecified)
a: fulfilled

q: Reported pKi at or above 7? Cc1ccc(N2CCN(C(=O)[C@H](C)Cc3ccc(Cl)cc3Cl)CC2)c([C@@H](N)CC(C)C)c1
a: fulfilled

q: Reported pKi at or above 7? CN1CCc2cccc(N3CCN(C(=O)[C@@H](Cc4ccc(Cl)cc4)NC(=O)[C@H]4Cc5ccccc5CN4)CC3)c2C1
a: not fulfilled
